Provenance of the data: patent US5696263A

# Tested on: human immunodeficiency virus (HIV RF strain) in CEM-SS cells
# testMethodNotes: XTT assay, anti-HIV RF activity in infected CEM-SS cells, six days post infection
# Type: cell-based
# statedConditions: Human immunodeficiency virus 1, CEM-SS, 144 h, HIV RF strain, CEM-SS cells, XTT assay, six days post infection; read-out: ED50 (the source's name)
Mark each entry Fulfilled if its EC50 sits below 5 µM, and Not fulfilled for all others.

Look over these answered cases.
| compound | assaySystem | labelClass |
| --- | --- | --- |
| [N-]=[N+]=NC[C@H](Cn1cnc2c(=O)[nH]c(N)nc21)OCP(=O)(O)O [(S)-2'-azidomethyl-PMEG] | human immunodeficiency virus (HIV RF strain) in CEM-SS cells | Not fulfilled |
| [N-]=[N+]=NCC(Cn1cnc2c(=O)[nH]c(N)nc21)OCP(=O)(O)O (racemic) [(R,S)-2'-azidomethyl-PMEG] | human immunodeficiency virus (HIV RF strain) in CEM-SS cells | Not fulfilled |
| C=CC(Cn1cnc2c(=O)[nH]c(N)nc21)OCP(=O)(O)O (racemic) [(R,S)-2'vinyl-PMEG] | human immunodeficiency virus (HIV RF strain) in CEM-SS cells | Not fulfilled |

Q: Criterion: EC50 strictly below 5 µM. Is it met by Nc1nc2c(ncn2CCOCP(=O)(O)O)c(=O)[nH]1 [PMEG, 9-[2-(phosphonomethoxy)ethyl]guanine, reference compound] ?
Ans: Fulfilled
